Tested on: U-87 MG
Assay: Antiproliferative activity against human U87MG cells after 72 hrs by SRB assay
Assay type: functional, cell-based, U-87MG ATCC
Recorded endpoint: IC50 (nM)
Give bare numbers, in nM.

In: Please look at this molecule and report its IC50: COC(=O)[C@H](NC(=O)COCCOCCOCCNC(=O)c1noc(-c2cc(C(C)C)c(O)cc2O)c1-c1ccc(CN2CCOCC2)cc1)C(C)C
Out: 109

====

Target: Heat shock protein HSP 90-alpha (Homo sapiens, UniProt P07900)
Test: Inhibition of fluorescein isothiocyanate labeled geldanamycin binding to recombinant Hsp90alpha (unknown origin) after 1 hr by fluorescence polarization assay
Recorded endpoint: IC50 (nM)
Answers are plain numbers, in nM.

>  <Structure notation>
COC(=O)[C@H](NC(=O)COCCOCCOCCNC(=O)c1noc(-c2cc(C(C)C)c(O)cc2O)c1-c1ccc(CN2CCOCC2)cc1)C(C)C

>  <IC50, nM>
14

$$$$

Each of the following entries comes with a recorded value; kindly state IC50 for each.
1. COC(=O)[C@@H](CC(C)C)NC(=O)[C@H](NC(=O)c1noc(-c2cc(C(C)C)c(O)cc2O)c1-c1ccc(CN2CCOCC2)cc1)C(C)C
2. CC(C)c1cc(-c2onc(C(=O)N[C@@H](C(=O)N3CC(F)(F)C3)C(C)C)c2-c2ccc(CN3CCOCC3)cc2)c(O)cc1O
3. CC(C)c1cc(-c2onc(C(=O)N[C@@H](C(=O)NC3(CO)CC3)C(C)C)c2-c2ccc(CN3CCOCC3)cc2)c(O)cc1O
4. COC(=O)[C@H](NC(=O)[C@H](NC(=O)c1noc(-c2cc(C(C)C)c(O)cc2O)c1-c1ccc(CN2CCOCC2)cc1)C(C)C)C(C)C

Out:
1: 285; 2: 39; 3: 106; 4: 206

Each molecule below has a reported value. Please supply its IC50.
1. COC(=O)[C@@H](Cc1ccccc1)NC(=O)COCCOCCOCCNC(=O)c1noc(-c2cc(C(C)C)c(O)cc2O)c1-c1ccc(CN2CCOCC2)cc1
2. COC(=O)[C@@H](Cc1ccccc1)NC(=O)c1noc(-c2cc(C(C)C)c(O)cc2O)c1-c1ccc(CN2CCOCC2)cc1

Out:
1: 122; 2: 260
